Origin of values: patent US20180057604A1

Target: T1, human BACE1 (R&D Systems) (human, UniProt P56817)
T1 construct: recombinant, commercial (R&D Systems)
T1 sequence (P56817 22-457 limits assumed): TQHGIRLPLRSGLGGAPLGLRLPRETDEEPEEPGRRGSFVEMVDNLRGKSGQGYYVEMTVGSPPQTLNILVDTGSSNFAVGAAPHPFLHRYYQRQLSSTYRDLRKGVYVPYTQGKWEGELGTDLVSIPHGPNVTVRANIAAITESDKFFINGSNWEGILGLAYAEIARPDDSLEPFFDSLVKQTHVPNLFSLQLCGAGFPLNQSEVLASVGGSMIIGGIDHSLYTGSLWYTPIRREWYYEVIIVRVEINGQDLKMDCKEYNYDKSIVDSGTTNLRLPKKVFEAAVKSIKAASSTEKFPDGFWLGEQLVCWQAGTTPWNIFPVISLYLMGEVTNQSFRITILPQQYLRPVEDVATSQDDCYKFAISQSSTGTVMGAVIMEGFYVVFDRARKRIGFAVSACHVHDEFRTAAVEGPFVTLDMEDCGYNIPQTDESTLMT
Assay: SPR (Biacore)
ASSAY_METRIC: pKd
Bear in mind: pKd is minus log10 of a mol/L concentration; give just that figure.

Ask: Tell me measured pKd for 6297 (antibody, V domains shown, anti-BACE1 IgG) VH: QLQLQESGPGLVKPSETLSLTCTVSGGPISSSSYYWGWIRQPPGKGLEWIGNIYYSGSTYYNPSLRGRVTISVDTSKNQFSLKLSSVTAADTAVYYCARLGHGYNYFDLWGRGTLVTVSS VL: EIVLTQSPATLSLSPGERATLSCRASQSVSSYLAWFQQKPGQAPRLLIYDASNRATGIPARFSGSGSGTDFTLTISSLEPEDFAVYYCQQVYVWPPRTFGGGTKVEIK please.
Reply: 8.41
